Below, each of the compounds is paired with its reported IC50 value.
Molecular target: human MRGPRD (Homo sapiens, UniProt Q8TDS7)
Sequence (Q8TDS7 whole entry): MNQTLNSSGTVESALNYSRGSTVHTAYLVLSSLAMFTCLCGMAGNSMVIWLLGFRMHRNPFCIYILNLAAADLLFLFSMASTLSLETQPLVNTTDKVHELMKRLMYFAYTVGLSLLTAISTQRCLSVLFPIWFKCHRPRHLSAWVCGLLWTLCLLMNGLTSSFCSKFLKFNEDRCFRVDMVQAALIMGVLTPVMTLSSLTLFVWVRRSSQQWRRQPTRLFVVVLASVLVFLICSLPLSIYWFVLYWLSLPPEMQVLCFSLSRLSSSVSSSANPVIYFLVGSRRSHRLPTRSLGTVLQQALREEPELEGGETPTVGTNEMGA
Assay: MRGPRD antagonist activity, IP-One HTRF assay in CHO cells stably expressing human MRGPRD (versus 100 μM β-Alanine agonist)

| Compound | IC50 |
| --- | --- |
| COc1cccc(-c2nc([C@@H]3CCCN(C(=O)Nc4cccc5c4CCC5)C3)n3ccccc23)c1 | 100 to 500 nM |
| COc1cccc(-c2nc(-c3cccc(C(=O)Nc4ccc(N(C)C)cc4)c3)n3ccccc23)c1 | < 100 nM |
| COc1ncc(-c2nc([C@@H]3CCCN(C(=O)Nc4ccc(N(C)C)cc4)C3)n3ccccc23)cn1 | > 3000 nM |
| COc1cccc(-c2nc([C@@H]3CCCN(C(=O)Nc4ccc5c(c4)ncn5C)C3)n3ccccc23)c1 | < 100 nM |
| COc1cccc(-c2nc([C@@H]3CCCN(C(=O)Nc4ccc5c(c4)OCO5)C3)n3ccccc23)c1 | < 100 nM |

// sample COc1cccc(-c2nc([C@@H]3CCCN(C(=O)Nc4cccc(OC(F)(F)F)c4)C3)n3ccccc23)c1 , its IC50 was 500 to 1000 nM

For record COc1cccc(-c2nc(C3CCCN(C(=O)Cc4cccc(F)c4)C3)n3ccccc23)c1 (stereo not drawn) the listed IC50 is 100 to 500 nM

Briefly, IC50 measured for CCc1cccc(-c2nc([C@@H]3CCCN(C(=O)Nc4ccc(N(C)C)cc4)C3)n3ccccc23)c1 : 500 to 1000 nM

In plain terms, CN(C)c1ccc(NC(=O)N2CCC[C@@H](c3nc(-c4cnn(-c5ccccc5)c4)c4ccccn34)C2)cc1 has a documented IC50 of 1000 to 3000 nM
